Tested on: Jurkat
ASSAY NAME: Cytotoxicity against human Jurkat cell viability after 72 hrs by MTT assay
OBSERVATION TYPE: pIC50
Keep it numeric: pIC50 is minus log10 of the concentration in mol/L.

| SMILES NOTATION | REPORTED MEASUREMENT |
| --- | --- |
| O=C1c2ccccc2C(=O)c2c(-c3cccc4c3OCO4)coc21 | 5.69 |
| O=C1c2ccccc2C(=O)c2c(-c3cccs3)coc21 | 5.38 |
| O=C1c2ccccc2C(=O)c2c(-c3ccccc3[N+](=O)[O-])coc21 | 5.83 |
| COc1ccc(-c2coc3c2C(=O)c2ccccc2C3=O)cc1OC | 5.43 |
| O=C1c2ccccc2C(=O)c2c(-c3ccc(Br)cc3)coc21 | 5.56 |

Next item in the queue.
# lookup: pIC50 of O=C1c2ccccc2C(=O)c2c(-c3cccc4ccccc34)coc21
5.68
